This listing pairs compounds with measured inhibition at 1 µM.
# TESTED SYSTEM: hNAMPT protein (Homo sapiens (Human), UniProt P43490)
# Sequence (P43490 whole entry): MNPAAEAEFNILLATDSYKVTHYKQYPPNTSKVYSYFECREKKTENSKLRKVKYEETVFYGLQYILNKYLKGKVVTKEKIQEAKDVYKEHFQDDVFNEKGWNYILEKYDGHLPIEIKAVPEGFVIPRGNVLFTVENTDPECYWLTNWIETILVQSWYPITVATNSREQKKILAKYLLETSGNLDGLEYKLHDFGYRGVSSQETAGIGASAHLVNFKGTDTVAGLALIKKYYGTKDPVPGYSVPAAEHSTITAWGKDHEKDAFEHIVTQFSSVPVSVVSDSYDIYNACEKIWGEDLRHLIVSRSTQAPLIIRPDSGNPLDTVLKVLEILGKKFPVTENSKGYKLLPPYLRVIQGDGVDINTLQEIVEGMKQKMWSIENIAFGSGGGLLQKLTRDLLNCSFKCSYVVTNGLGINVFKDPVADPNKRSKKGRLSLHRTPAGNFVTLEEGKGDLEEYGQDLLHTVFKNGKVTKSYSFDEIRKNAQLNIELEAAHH
# ASSAY OVERVIEW: NAMPT enzyme assay (TR-FRET/HTRF with BodiPY ligand)
# Type: binding
# APPLIED CONDITIONS: NAMPT inhibition at compound concentration 1 μM; read-out: Percent Inhibition

COMPOUND STRUCTURE | RELATION SIGN | inhibition at 1 µM [%]
CCOc1cc(-c2ccc(OC)nc2)nc2cc(C(=O)NCCc3[nH]nnc3C)ccc12 | = | 97
O=C(NCCCc1ncc[nH]1)c1ccc2c(C3CC3)nc(-c3ccc(Cl)cc3)nc2c1 | = | 97
CCOc1cc(-c2cccnc2OC)nc2cc(C(=O)NCCc3c[nH]nc3C)ccc12 | = | 94
CCOc1nc(-c2ccc(Cl)cc2)nc2cc(C(=O)NCCCc3ncc[nH]3)ccc12 | > | 99
CCOc1nc(-c2ccc(F)cc2)nc2cc(C(=O)NCCCc3ncc[nH]3)ccc12 | > | 99
COc1cc(-c2nc(-c3ccc(F)cc3)nc3cc(C(=O)NCCCc4nnc[nH]4)ccc23)ccn1 | = | 97
CCOc1cc(-c2ccc(C)nc2)nc2cc(C(=O)NCCc3c[nH]nn3)ccc12 | = | 97
CCOc1cc(-c2ccc(F)cc2)nc2cc(C(=O)NCCCc3cncn3C)ccc12 | > | 99
